Documented EC50 across a set of compounds
measured.on: Lysophosphatidic acid receptor 1 (Homo sapiens, UniProt Q92633)
Sequence (Q92633 whole entry): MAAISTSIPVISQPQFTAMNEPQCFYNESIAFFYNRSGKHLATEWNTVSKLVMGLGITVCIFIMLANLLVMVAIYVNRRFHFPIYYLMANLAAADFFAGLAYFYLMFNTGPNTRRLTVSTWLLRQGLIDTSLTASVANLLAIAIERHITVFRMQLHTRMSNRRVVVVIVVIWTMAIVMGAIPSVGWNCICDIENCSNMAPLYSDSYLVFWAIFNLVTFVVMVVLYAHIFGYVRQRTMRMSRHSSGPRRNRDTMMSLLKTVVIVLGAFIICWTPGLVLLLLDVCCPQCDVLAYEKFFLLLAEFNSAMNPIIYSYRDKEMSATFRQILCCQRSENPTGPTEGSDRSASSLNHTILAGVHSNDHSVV
measurement.description: Antagonist activity at LPA1 receptor in serum starved human TWNT-4 cells assessed as nuclear translocation pre-incubated for 1 hr followed by LPA stimulation and measured after 30 min by MRTF-A assay
Format: cell-based
attribute.measured: EC50

{"molecular.string": "C[C@@H](OC(=O)Nc1c(-c2ccc(NC(=O)C34CC(F)(C3)C4)cn2)nnn1C)c1cc(F)cnc1F", "attribute.measured": "EC50", "observed": "77 nM"}
{"molecular.string": "C[C@@H](OC(=O)Nc1c(-c2ccc(NS(C)(=O)=O)cc2)nnn1C)c1ccccc1Cl", "attribute.measured": "EC50", "observed": "12 nM"}
{"molecular.string": "C[C@@H](OC(=O)Nc1c(-c2ccc(N)cc2)nnn1C)c1ccccc1Cl", "attribute.measured": "EC50", "observed": "417 nM"}
{"molecular.string": "Cc1nc(-c2nnn(C)c2NC(=O)O[C@H](C)c2cccnc2F)ccc1NS(C)(=O)=O", "attribute.measured": "EC50", "observed": "1370 nM"}
{"molecular.string": "Cc1nc(-c2nnn(C)c2NC(=O)O[C@H](C)c2cccnc2Cl)ccc1NS(C)(=O)=O", "attribute.measured": "EC50", "observed": "109 nM"}
{"molecular.string": "Cc1nc(-c2nnn(C)c2NC(=O)O[C@H](C)c2cc(F)cnc2F)ccc1NS(C)(=O)=O", "attribute.measured": "EC50", "observed": "124 nM"}
{"molecular.string": "C[C@@H](OC(=O)Nc1c(-c2ccc(NS(C)(=O)=O)cn2)nnn1C)c1cc(F)cnc1F", "attribute.measured": "EC50", "observed": "35 nM"}
{"molecular.string": "C[C@@H](OC(=O)Nc1c(-c2ccc(NC(=O)C3(C#N)CC3)cn2)nnn1C)c1cc(F)cnc1F", "attribute.measured": "EC50", "observed": "37 nM"}
{"molecular.string": "Cn1nnc(-c2ccc(NS(C)(=O)=O)cn2)c1NC(=O)O[C@H](CF)c1ccccc1", "attribute.measured": "EC50", "observed": "81 nM"}
{"molecular.string": "Cc1nc(-c2nnn(C)c2NC(=O)O[C@H](C)c2cc(F)ccc2F)ccc1NS(C)(=O)=O", "attribute.measured": "EC50", "observed": "953 nM"}
{"molecular.string": "C[C@@H](OC(=O)Nc1c(-c2ccc(NS(=O)(=O)C(C)(C)C)cc2)nnn1C)c1ccccc1Cl", "attribute.measured": "EC50", "observed": "> 10000 nM"}
{"molecular.string": "C[C@@H](OC(=O)Nc1c(-c2ccc(NC(=O)C3(C(F)F)CC3)cn2)nnn1C)c1cc(F)cnc1F", "attribute.measured": "EC50", "observed": "5250 nM"}
{"molecular.string": "C[C@@H](OC(=O)Nc1c(-c2ccc(NS(C)(=O)=O)cn2)nnn1C)c1cccnc1Cl", "attribute.measured": "EC50", "observed": "108 nM"}
{"molecular.string": "CNS(=O)(=O)c1ccc(-c2nnn(C)c2NC(=O)O[C@H](C)c2ccccc2Cl)cc1", "attribute.measured": "EC50", "observed": "893 nM"}
{"molecular.string": "C[C@@H](OC(=O)Nc1c(-c2ccc(NS(C)(=O)=O)cn2)nnn1C)c1ccccc1Cl", "attribute.measured": "EC50", "observed": "30 nM"}
{"molecular.string": "C[C@@H](OC(=O)Nc1c(-c2ccc(NC(=O)C(F)(F)F)cc2)nnn1C)c1ccccc1Cl", "attribute.measured": "EC50", "observed": "20 nM"}
{"molecular.string": "Cc1nc(-c2nnn(C)c2NC(=O)O[C@@H](c2ccccc2)C(F)(F)F)ccc1NS(C)(=O)=O", "attribute.measured": "EC50", "observed": "45 nM"}
